The measurements presented in this section are drawn from PubChem BioAssay (NCATS).

molecular target: Cytochrome P450 3A4 (Homo sapiens) (UniProt P08684); experiment: qHTS Assay for Activators of Cytochrome P450 3A4 (AID 885); conditions: recombinant CYP3A4, Luciferin-PPXE luminescence, 60 min; series mostly up to 57.1 µM; further: nearly all actives have a fitted effect of over 65% in size
Sequence (P08684 whole entry, looked up): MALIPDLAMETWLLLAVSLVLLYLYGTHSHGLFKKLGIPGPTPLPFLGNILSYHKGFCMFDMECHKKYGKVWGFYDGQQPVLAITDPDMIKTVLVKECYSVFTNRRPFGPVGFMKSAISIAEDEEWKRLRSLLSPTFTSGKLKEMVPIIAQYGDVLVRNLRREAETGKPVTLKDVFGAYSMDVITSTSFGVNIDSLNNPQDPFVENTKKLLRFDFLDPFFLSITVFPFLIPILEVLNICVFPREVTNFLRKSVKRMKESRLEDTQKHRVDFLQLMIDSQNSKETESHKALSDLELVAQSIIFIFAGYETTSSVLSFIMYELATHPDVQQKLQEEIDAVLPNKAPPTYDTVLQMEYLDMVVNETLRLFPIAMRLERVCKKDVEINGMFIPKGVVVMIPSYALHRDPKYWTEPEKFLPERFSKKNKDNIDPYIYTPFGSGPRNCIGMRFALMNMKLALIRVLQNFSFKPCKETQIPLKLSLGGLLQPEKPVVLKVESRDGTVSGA
Activity calls are given as the source filed them. The call rests on the fitted dose curve; in most records, active means well fitted activation curve with a large enough effect; inconclusive means small, poorly fitted or top-dose-only effect; inactive means no such curve, though single readings can be large or run the other way.
Your reply should match one of these outcome classes. true (active), false (inactive)

// known answers, use as guide
# Smiles record, Cat
data = [
    ("Cc1cccc(CNc2ncncc2-c2ccccc2Cl)c1", "false"),
    ("COc1cccc(Cn2c(=O)cnc3cnc(N4CCN(C)CC4)nc32)c1", "false"),
    ("CC[C@@H]1Cn2c(c3nc(-c4ccccc4)nc-3n(C)c2=O)N1", "true"),
]

Kindly review the next compound as well.
Please indicate how the test categorized COc1ccc(CNc2ncnc3ccc(-c4ccoc4)cc23)c(OC)c1 .
false
